Numbers sourced from ChEMBL document CHEMBL4270561.

# Assay text: Selectivity index, ratio of IC50 for human MCF10A cells to IC50 for human LoVo cells
# Format: toxicity
# Condition: MCF10A cells versus LoVo cells, read-out: Ratio IC50
Readout name: selectivity ratio
Lab note: record just the number, no unit beside it.

Below: 3 molecules and their reported selectivity ratio.
CC[C@@H](C(=O)[C@@H](C)[C@@H](O)[C@H](C)[C@@H]1O[C@@H]([C@@H](CC)C(=O)OCC(F)(F)F)CC[C@@H]1C)[C@H]1O[C@]2(C=C[C@@H](O)[C@]3(CC[C@@](C)([C@H]4CC[C@](O)(CC)[C@H](C)O4)O3)O2)[C@H](C)C[C@@H]1C = 11
CC[C@@H](C(=O)[C@@H](C)[C@@H](O)[C@H](C)[C@@H]1O[C@@H]([C@@H](CC)C(=O)NCCc2ccc(F)cc2)CC[C@@H]1C)[C@H]1O[C@]2(C=C[C@@H](O)[C@]3(CC[C@@](C)([C@H]4CC[C@](O)(CC)[C@H](C)O4)O3)O2)[C@H](C)C[C@@H]1C = 11
CC[C@@H](C(=O)[C@@H](C)[C@@H](O)[C@H](C)[C@@H]1O[C@@H]([C@@H](CC)C(=O)NCCc2ccc(F)cc2)CC[C@@H]1C)[C@H]1O[C@]2(C=C[C@@H](OC(C)=O)[C@]3(CC[C@@](C)([C@H]4CC[C@](O)(CC)[C@H](C)O4)O3)O2)[C@H](C)C[C@@H]1C = 11

# context switch: different molecule, same selectivity ratio
Write down selectivity ratio measured for item C#CCNC(=O)[C@H](CC)[C@H]1CC[C@H](C)[C@H]([C@@H](C)[C@H](O)[C@H](C)C(=O)[C@H](CC)[C@H]2O[C@]3(C=C[C@@H](O)[C@]4(CC[C@@](C)([C@H]5CC[C@](O)(CC)[C@H](C)O5)O4)O3)[C@H](C)C[C@@H]2C)O1
8.1
